Target: Tyrosine-protein phosphatase non-receptor type 1 (Homo sapiens, UniProt P18031)
Sequence (P18031 whole entry): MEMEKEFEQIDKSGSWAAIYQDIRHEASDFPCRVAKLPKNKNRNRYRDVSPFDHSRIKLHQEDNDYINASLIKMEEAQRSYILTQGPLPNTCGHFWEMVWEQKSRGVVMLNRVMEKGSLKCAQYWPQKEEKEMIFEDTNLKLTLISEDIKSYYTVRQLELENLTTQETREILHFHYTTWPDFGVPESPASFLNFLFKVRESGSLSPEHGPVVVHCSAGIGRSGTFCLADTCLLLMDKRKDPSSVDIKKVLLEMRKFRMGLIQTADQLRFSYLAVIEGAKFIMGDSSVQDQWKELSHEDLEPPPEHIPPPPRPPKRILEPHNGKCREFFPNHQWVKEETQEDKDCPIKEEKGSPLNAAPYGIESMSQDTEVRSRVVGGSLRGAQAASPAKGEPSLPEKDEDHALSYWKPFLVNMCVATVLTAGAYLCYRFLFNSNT
metric_name: IC50 (µM)

>>> observed_measurement("CC(C)=CCC[C@H](C)[C@H]1c2cc(C)cc(O)c2[C@H](C)C[C@H]1O")
105
>>> observed_measurement("CC(C)=CCC[C@H](C)[C@@H]1CC[C@@H](CO)c2c(O)cc(C)cc21")
20
>>> observed_measurement("CC(C)=CCC[C@H](C)c1cccc2c(O)cc(C)cc12")
16.6

Numbers sourced from ChEMBL document CHEMBL5257046.
